- Study Target: UniProtKB P41595
- Sequence (P41595 whole entry): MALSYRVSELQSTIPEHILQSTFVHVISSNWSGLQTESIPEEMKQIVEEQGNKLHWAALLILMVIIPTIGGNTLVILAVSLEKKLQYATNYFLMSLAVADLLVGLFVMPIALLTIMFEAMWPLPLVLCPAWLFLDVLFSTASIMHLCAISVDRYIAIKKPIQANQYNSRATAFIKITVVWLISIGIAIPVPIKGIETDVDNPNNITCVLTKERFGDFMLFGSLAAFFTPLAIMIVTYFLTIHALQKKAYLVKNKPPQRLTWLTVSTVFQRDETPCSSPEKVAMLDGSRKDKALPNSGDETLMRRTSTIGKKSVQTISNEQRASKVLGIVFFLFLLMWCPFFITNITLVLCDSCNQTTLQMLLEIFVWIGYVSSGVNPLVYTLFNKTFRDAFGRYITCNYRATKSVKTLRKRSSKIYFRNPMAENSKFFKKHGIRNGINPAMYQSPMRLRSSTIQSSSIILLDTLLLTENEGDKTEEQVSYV
- Assay Details: Inositol 1-phosphate
pIC50: −log10 of the molar value.

>  <Compound>
Cn1ccc2cc3c(cc21)CCN3C(=O)Nc1cccnc1 [SB206553, reference compound]

>  <pIC50>
7.89

$$$$
